biological target: human ACE2 (human, UniProt Q9BYF1); experiment: SPR; given as Ka
Sequence (Q9BYF1 18-740): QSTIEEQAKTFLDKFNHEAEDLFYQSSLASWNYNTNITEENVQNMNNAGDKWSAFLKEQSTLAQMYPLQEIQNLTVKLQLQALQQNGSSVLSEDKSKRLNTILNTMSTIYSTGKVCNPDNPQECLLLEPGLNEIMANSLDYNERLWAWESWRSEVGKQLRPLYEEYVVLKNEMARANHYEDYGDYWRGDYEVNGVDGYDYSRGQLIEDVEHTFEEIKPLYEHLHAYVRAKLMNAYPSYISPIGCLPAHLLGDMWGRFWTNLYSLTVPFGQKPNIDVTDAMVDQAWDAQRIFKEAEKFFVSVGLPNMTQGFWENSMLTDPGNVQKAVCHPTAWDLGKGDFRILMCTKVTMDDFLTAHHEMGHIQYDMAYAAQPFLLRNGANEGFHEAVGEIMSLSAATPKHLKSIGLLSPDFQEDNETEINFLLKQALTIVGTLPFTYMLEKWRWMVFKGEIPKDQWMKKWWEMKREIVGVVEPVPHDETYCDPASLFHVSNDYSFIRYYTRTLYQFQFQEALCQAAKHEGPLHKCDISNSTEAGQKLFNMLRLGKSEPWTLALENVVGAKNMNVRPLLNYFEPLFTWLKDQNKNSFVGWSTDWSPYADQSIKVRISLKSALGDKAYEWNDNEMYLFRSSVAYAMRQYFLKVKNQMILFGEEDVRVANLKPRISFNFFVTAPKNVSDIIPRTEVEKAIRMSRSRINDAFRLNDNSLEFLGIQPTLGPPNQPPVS
pKd: −log10 of the molar value.
valueType: pKd

# binder, valueReported
records = [
    ("FPIPLPYCWLCRALIKRIQAMIPKGGRMLPQLVCRLVLRCS [Super Mini-B (SMB)]", 8.00),
]
